# System: Inhibin beta A chain (activin A)
# Measurement notes: INHBA (activin A) binders on microarrays, primary screen, biochemical, small-molecule microarray, 635 nm fluorescence scan (AID 1107);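 further: mouse activin A protein probed at 4.33 µg/mL on printed slides; score merges bound-protein fluorescence near 667 nm with spot signal-to-noise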
# Condition parameters: small-molecule microarray binding, higher = more signal
Parameter: composite z-score
Please give the numeric answer without any surrounding text.

In the examples that follow, each entry is paired with its recorded composite z-score.
C[C@H]1NC(=O)[C@@H](C)NC(=O)[C@@]23C(=O)N[C@@H](Cc4ccccc4)C2[C@H](C)[C@@]2(C)O[C@H]2C3/C=C/C/C=C\CNC1=O (stereo partly specified) = 1.28
O=C1O[C@H](c2ccccc2)[C@H](c2ccccc2)N2[C@H]1[C@@H](C(=O)NC[C@H](O)c1ccccc1)[C@]1(C(=O)Nc3ccc(C#CC4=CCCCC4)cc31)[C@H]2c1ccc(OCCO)cc1 = 1.05
[N-]=[N+]=Nc1ccccc1C[C@@]1(C(=O)N2CCOCC2)N=C(c2ccc(OCCCO)cc2)O[C@@H]1c1ccccc1N=[N+]=[N-] = 0.937
COCCOC(=O)N1C(=O)[C@@]2(c3cc(C#CC4(O)CCCCCC4)ccc31)[C@H](C(=O)N1CCCCCCC1)[C@H]1C(=O)O[C@H](c3ccccc3)[C@H](c3ccccc3)N1[C@@H]2c1ccc(O)cc1 = 1.89
CC(C)[C@H]1NC(=O)[C@@]23C(=O)N[C@@H](Cc4ccccc4)C2[C@H](C)[C@@]2(C)O[C@H]2C3/C=C/C/C=C\CNC(=O)[C@H](C)NC1=O (stereo partly specified) = 1.32
CC[C@@H]1C=C(C(=O)O)[C@H](c2ccccc2)N1S(=O)(=O)c1ccc([N+](=O)[O-])cc1 = 0.781
C=CCC1=C[C@H]2[C@H]([C@@H]3C=C[C@]2(CC=C)C(=O)[C@]32CO2)[C@@]2(CO2)C1=O = 1.9
Cc1ccc(N2C(=O)c3ccccc3[C@](C)(C(=O)O)[C@@H]2c2ccc(CO)cc2)nc1 = -0.292
CO[C@H]1COC(=O)CC=C[C@H](C)[C@@H](OC)COC(=O)CC=C[C@@H]1C = 0.716
CO[C@H]1O[C@H](CO)[C@@H](OC(=O)Nc2ccc(Oc3ccccc3)cc2)[C@H](OC(=O)Nc2ccccc2-c2ccccc2)[C@H]1OC(=O)Nc1ccccc1-c1ccccc1 = 0.187

# context switch: different compound, same composite z-score
Reported composite z-score ( `COCCOC(=O)N1C(=O)[C@@]2(c3cc(C#CCNC(N)=O)ccc31)[C@H](c1ccccc1OCCO)N1[C@H](c3ccccc3)[C@H](c3ccccc3)OC(=O)[C@H]1[C@@H]2C(=O)NC[C@H](O)c1ccccc1` ) = 0.203

Values were extracted from PubChem BioAssay.
